The origin of these recorded values is ChEMBL document CHEMBL4359826.

assayed.system: Mu-type opioid receptor (Rattus norvegicus)
Sequence (P33535 whole entry): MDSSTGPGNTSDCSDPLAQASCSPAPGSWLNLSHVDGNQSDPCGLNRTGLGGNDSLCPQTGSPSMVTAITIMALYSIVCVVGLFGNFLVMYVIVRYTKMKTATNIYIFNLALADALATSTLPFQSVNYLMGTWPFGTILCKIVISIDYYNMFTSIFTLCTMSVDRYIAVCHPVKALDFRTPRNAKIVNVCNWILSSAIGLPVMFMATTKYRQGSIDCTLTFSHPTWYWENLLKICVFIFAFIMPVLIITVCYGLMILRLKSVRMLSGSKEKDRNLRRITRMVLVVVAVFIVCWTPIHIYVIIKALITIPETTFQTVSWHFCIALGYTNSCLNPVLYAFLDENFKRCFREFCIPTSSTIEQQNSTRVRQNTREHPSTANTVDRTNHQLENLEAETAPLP
Some molecules, each annotated with its measured Ki.
Give your result in nM as a bare value.

Example results:
# query.smiles, assayed.system, reported
measured = [
    ("COc1ccc2c3c1O[C@H]1/C(=N\\OCC(=O)NCCCOCCOCCOCCCNC(=O)CCCCCn4cc(C(=O)c5cccc6ccccc56)c5ccccc54)CC[C@@]4(O)[C@@H](C2)N(C)CC[C@]314", "Mu-type opioid receptor (Rattus norvegicus)", 20),
    ("C[C@@H](NC(=O)[C@@H](N)Cc1ccc(O)cc1)C(=O)NCC(=O)N[C@@H](Cc1ccccc1)C(N)=O", "Mu-type opioid receptor (Rattus norvegicus)", 0.8),
    ("COc1ccc2c3c1O[C@H]1/C(=N\\OCC(=O)NCCCCCCNC(=O)CCCCCn4cc(C(=O)c5cccc6ccccc56)c5ccccc54)CC[C@@]4(O)[C@@H](C2)N(C)CC[C@]314", "Mu-type opioid receptor (Rattus norvegicus)", 18),
    ("C[C@@H](NC(=O)[C@@H](N)Cc1ccc(O)cc1)C(=O)NCC(=O)N[C@@H](Cc1ccccc1)C(=O)NCCCCCn1cc(C(=O)c2cccc3ccccc23)c2ccccc21", "Mu-type opioid receptor (Rattus norvegicus)", 50),
    ("COc1ccc2c3c1O[C@H]1/C(=N\\OCC(=O)NCCCOCCOCCOCCCN)CC[C@@]4(O)[C@@H](C2)N(C)CC[C@]314", "Mu-type opioid receptor (Rattus norvegicus)", 74),
]

Here's the next entry for you.
Query block: Any idea what Ki came out for COc1ccc2c3c1O[C@H]1/C(=N\OCC(=O)O)CC[C@@]4(O)[C@@H](C2)N(C)CC[C@]314 on Mu-type opioid receptor (Rattus norvegicus)?
Result block: 24

###

Some compounds, each annotated with its measured Emax.
assayed.system: Cannabinoid receptor (Rattus norvegicus) (UniProt Q9QZN9+P20272)
Sequence (P20272 whole entry, looked up): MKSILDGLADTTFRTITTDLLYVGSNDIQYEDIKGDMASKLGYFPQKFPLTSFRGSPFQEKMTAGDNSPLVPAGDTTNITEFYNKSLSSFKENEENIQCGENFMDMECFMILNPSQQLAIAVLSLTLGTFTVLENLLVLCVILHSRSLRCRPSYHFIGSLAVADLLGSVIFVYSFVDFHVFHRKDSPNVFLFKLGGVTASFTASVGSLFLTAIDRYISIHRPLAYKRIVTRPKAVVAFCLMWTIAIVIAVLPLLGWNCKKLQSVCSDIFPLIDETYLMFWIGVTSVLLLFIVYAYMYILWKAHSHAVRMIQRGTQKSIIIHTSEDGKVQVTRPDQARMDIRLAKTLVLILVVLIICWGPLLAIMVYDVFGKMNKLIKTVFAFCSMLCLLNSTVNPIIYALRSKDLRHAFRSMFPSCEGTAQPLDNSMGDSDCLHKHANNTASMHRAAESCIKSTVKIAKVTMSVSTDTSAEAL
Sequence (Q9QZN9 whole entry, looked up): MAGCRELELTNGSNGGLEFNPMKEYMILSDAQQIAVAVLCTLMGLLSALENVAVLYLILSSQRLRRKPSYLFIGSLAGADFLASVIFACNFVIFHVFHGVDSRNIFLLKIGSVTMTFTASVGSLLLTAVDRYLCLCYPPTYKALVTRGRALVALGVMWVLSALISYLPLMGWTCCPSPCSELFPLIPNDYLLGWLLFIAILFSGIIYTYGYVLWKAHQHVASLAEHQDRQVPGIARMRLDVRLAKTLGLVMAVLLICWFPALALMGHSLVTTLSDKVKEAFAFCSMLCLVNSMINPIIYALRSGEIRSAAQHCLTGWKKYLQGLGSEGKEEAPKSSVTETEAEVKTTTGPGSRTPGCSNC
protocol.text: Antagonist activity at CB1R/CB2R in Wistar rat brain membranes at 10 uM in presence of JWH-018 after 60 mins by [35S]-GTPgammaS binding assay relative to control
Format: functional, cell membranes
Give your result in % as a bare value.

# query.smiles, assayed.system, unit.name, reported
data = [
    ("COc1ccc(C(=O)c2c(C)n(CCN3CCOCC3)c3cc(I)ccc23)cc1", "Cannabinoid receptor (Rattus norvegicus) (UniProt Q9QZN9+P20272)", "%", 100),
    ("Cc1c(C(=O)NN2CCCCC2)nn(-c2ccc(Cl)cc2Cl)c1-c1ccc(Cl)cc1", "Cannabinoid receptor (Rattus norvegicus) (UniProt Q9QZN9+P20272)", "%", 100),
    ("COc1ccc2c3c1O[C@H]1/C(=N\\OCC(=O)NCCNC(=O)CCCCCn4cc(C(=O)c5cccc6ccccc56)c5ccccc54)CC[C@@]4(O)[C@@H](C2)N(C)CC[C@]314", "Cannabinoid receptor (Rattus norvegicus) (UniProt Q9QZN9+P20272)", "%", 107),
]

Here's the next entry for you.
Query block: Quick check: Emax of COc1ccc2c3c1O[C@H]1/C(=N\OCC(=O)NCCCOCCOCCOCCCNC(=O)CCCCCn4cc(C(=O)c5cccc6ccccc56)c5ccccc54)CC[C@@]4(O)[C@@H](C2)N(C)CC[C@]314 ?
Result block: 110

###

Tested on: Rattus norvegicus
protocol.text: Antiallodynic activity in sodium iodoacetate-induced rat model of osteoarthritis assessed as increase in maximum effect in early phase at 20 ug administered as intrathecal injection measured up to 45 mins by Von Frey test
Type: functional, organism-based
Activity calls are given as the source filed them. No cut-off for these calls is given here.

# query.smiles, Activity
rows = [
    ("C[C@@H](NC(=O)[C@@H](N)Cc1ccc(O)cc1)C(=O)NCC(=O)N[C@@H](Cc1ccccc1)C(=O)NCC(=O)NCCCCCn1cc(C(=O)c2cccc3ccccc23)c2ccccc21", "Active"),
    ("CCCCCn1cc(C(=O)c2cccc3ccccc23)c2ccccc21", "Active"),
    ("COc1ccc2c3c1O[C@H]1C(=O)CC[C@@]4(O)[C@@H](C2)N(C)CC[C@]314", "Active"),
    ("COc1ccc2c3c1O[C@H]1/C(=N\\OCC(=O)NCCCCCCNC(=O)CCCCCn4cc(C(=O)c5cccc6ccccc56)c5ccccc54)CC[C@@]4(O)[C@@H](C2)N(C)CC[C@]314", "Active"),
]
